Test system: female ICR mice
Assay: hEPO mRNA lipid nanoparticles in mice, serum EPO by ELISA
Type: in vivo
Settings: hEPO mRNA LNP, 0.5 mg/kg, tail vein injection, blood e.g. 6 hours after administration, relative to MC3 LNP positive control
OBSERVABLE: EPO expression relative to MC3

INSERT INTO assay_data (compound, value) VALUES
  ('CCCCCCCCC(CCCCCCCC)COC(=O)CCCCCN(CCCCCC(=O)OCC(CCCCCCCC)CCCCCCCC)CC1(O)CCN(C(=O)CCCN(C)C)CC1', 'Not detected'),
  ('CCCCCCCCC(CCCCCC)COC(=O)CCCCCN1CCC(O)(CN(CCCCCC(=O)OCC(CCCCCC)CCCCCCCC)C2CCCCC2)CC1 (stereo not drawn)', 'C (C: ≥0.1 and <1)'),
  ('CCCCCCCCC(CCCCCCCC)COC(=O)CCCCCN1CCC(O)(CN(CCCCCC(=O)OCC(CCCCCCCC)CCCCCCCC)C2CCC2)CC1', 'C (C: ≥0.1 and <1)'),
  ('CCCCCCCCC(CCCCCCCC)COC(=O)CCCCCN(CCCCCC(=O)OCC(CCCCCCCC)CCCCCCCC)CC1(O)CCN(C(=O)CN(C)C)CC1', 'Not detected'),
  ('CCCCCCCCC(CCCCCCCC)COC(=O)CCCCCN(CCCCCC(=O)OCC(CCCCCCCC)CCCCCCCC)CC1(O)CCN(C)CC1', 'Not detected'),
  ('CCCCCCCCC(CCCCCC)CC(=O)OCC(CCCCN1CCC(O)(CN(C)C)CC1)COC(=O)CC(CCCCCC)CCCCCCCC (stereo not drawn)', 'Not detected');
